- Test system: OVCAR-3 ovarian
- Test Details: NCI-60 one-dose screen, 48 h (100 = growth as untreated, 0 = no growth, -100 = all killed)
- Assay Conditions: 10 µM unless noted
- Method: Growth inhibition of the OVCAR-3 human tumor cell line is measured as a screen for anti-cancer activity. Cells are grown in 96 well plates and exposed to the test compound for 48 hours. Compounds are tested at a single concentration, which is 10^-5 M for most compounds. The reported endpoint is percent growth (GI% or GIPRCNT), where numbers from 0 - 100% represent growth inhibition, and numbers from -100% - 0 represent cell death. For example, a value of 40 represents 60% growth inhibition. […]
About 83,000 compounds went through this panel and 20% of them were active in at least one assay; those are over-represented in the sample as a whole.
Metric: growth (%)
Provide the reading as a plain figure in %.

Here's what some known entries look like.
CC(C)(C)OC(=O)N1CCN(c2ccc(N)cc2)C(=O)C1: 117
CC(C)(O)C1CCCN1C(=O)c1ccccc1I (stereo unspecified): 92.5

Incoming: What does the record list as growth for `CCOC(=O)c1cnc2c(cnn2CC)c1NN=C(C)C` ?
Outgoing: 104

Incoming: What does the record list as growth for `CCOc1ccc(/C=N/Nc2cc(C)nc3ccc(Cl)cc23)cc1` ?
Outgoing: -16.3

Incoming: What does the record list as growth for `FC(F)(F)c1cccc(Oc2ccc(Nc3ncnc4ccc(OCCCN5CCOCC5)cc34)cc2Cl)c1` ?
Outgoing: 51.6

Incoming: What does the record list as growth for `O=C(Nc1cccc(Cl)c1)c1cc(Cl)ccc1O` ?
Outgoing: 13.5

Incoming: What does the record list as growth for `O=C1c2ccccc2-c2c1c1c(NCCCO)nc3ccccc3c1n2Cc1ccccc1` ?
Outgoing: 14.4

Incoming: What does the record list as growth for COc1cccc(C(Cc2ccccc2)Nc2ccccc2)c1OC (stereo unspecified) ?
Outgoing: 98.4

Incoming: What does the record list as growth for `C=C1C(=O)O[C@H]2[C@H]1CC/C(CNC(=O)/C=C/c1ccccc1F)=C\CC[C@@]1(C)O[C@@H]21` ?
Outgoing: -62.7

Incoming: What does the record list as growth for `N/C(=N\N=C\c1cc2ccccc2[nH]1)N/N=C/c1cc2ccccc2[nH]1` ?
Outgoing: 93.9

Incoming: What does the record list as growth for CCN1C(=O)N(CC)C2NC(SC)=NC21 (stereo unspecified) ?
Outgoing: 102

Incoming: What does the record list as growth for `C=C(C)[C@@H]1CC[C@]2(C=O)CC[C@]3(C)[C@H](CC[C@@H]4[C@@]5(C)CCCNC(C)(C)[C@@H]5CC[C@]43C)[C@@H]12` ?
Outgoing: 77.5

Incoming: What does the record list as growth for `O=C1Nc2cc(-c3ccncc3)ccc2/C1=C/c1ccc[nH]1` ?
Outgoing: 85.2

Incoming: What does the record list as growth for `ClCC1(Cn2cnc3c(Cl)nc(Cl)nc32)COC1` ?
Outgoing: 84.4

Incoming: What does the record list as growth for `O=C(O)c1cn(C2CC2)c2cc(N3CCN(C(=O)C[n+]4cccc5ccccc54)CC3)c(F)cc2c1=O` ?
Outgoing: 51.1

Incoming: What does the record list as growth for `N#C/C(=C\c1ccc(Br)cc1)n1nnc2cccc(F)c21` ?
Outgoing: -31.5

Incoming: What does the record list as growth for `CC1=CC[C@@H]2CC[C@]3(C)[C@H](CC[C@@H]4[C@@]5(C)CCCNC(C)(C)[C@@H]5CC[C@]43C)[C@H]2[C@@H]1C` ?
Outgoing: -28.9

Incoming: What does the record list as growth for `COc1ccc(/C=N/NC(=O)c2cccc3cc[nH]c23)cc1O` ?
Outgoing: 1.58

Incoming: What does the record list as growth for COC(=O)C(c1ccccc1)C(CC(=O)c1ccccc1)c1ccccc1 (stereo unspecified) ?
Outgoing: 81.3

###

- System: A549/ATCC NSCLC
- Test Details: NCI-60 one-dose screen, 48 h (100 = growth as untreated, 0 = no growth, -100 = all killed)
- Assay Conditions: 10 µM unless noted
Compounds without any hit were thinned out: in the full panel of roughly 83,000, 20% have a hit.
Returns Satisfied if the recorded growth is greater than or equal to 70%, and Not satisfied otherwise.

Reference set, count: 9
Cc1nc2sc(C(=O)Nc3cccc(Br)c3)c(N)c2cc1C(=O)c1ccc(C(F)(F)F)cc1: Satisfied
CCCCCOc1ccc(/C=N/Nc2cc(C)nc3ccc(Br)cc23)cc1: Not satisfied
COc1cc2nc(-c3ccc(C(F)(F)F)cc3)cc(OCCCN3CCCCC3)c2cc1OC: Not satisfied
O=S(=O)(c1ccc(N/N=C\c2ccccc2)cc1)c1ccc(N/N=C/c2ccccc2)cc1: Not satisfied
c1ccc(CCSc2ncnc3nc[nH]c23)cc1: Satisfied
CC(=O)Nc1ccc(C(=O)Nc2cc(-c3ccccc3)ccc2N)cc1: Satisfied
O=c1nc2n(nc1/C=C/c1ccco1)CC(c1ccc(Cl)cc1)=NN2: Satisfied
Cc1cc2nc(-c3ccccc3)c(-c3ccccc3)nc2cc1C: Satisfied
CN1CCN(CCCNc2nccc(-c3c(-c4ccc(F)c(O)c4)nc4sccn34)n2)S1(=O)=O: Satisfied

Please find the next compound below.
Incoming: Please indicate if the recorded growth for `O=C(Nc1cccc(Cl)c1)c1cc(Cl)ccc1O` meets or exceeds 70%.
Outgoing: Not satisfied

###

Form field: growth (one value per entry).
- System: OVCAR-3 ovarian
- Test Details: NCI-60 one-dose screen, 48 h (100 = growth as untreated, 0 = no growth, -100 = all killed)
- Assay Conditions: 10 µM unless noted
The panel holds about 83,000 compounds, 20% with a hit somewhere; the sample as a whole holds those more often.
Provide the reading as a plain figure in %.

Here's what some known entries look like.
O=S(=O)(c1ccccc1)N1CCCc2ccccc21: 102
CCOC(=O)Oc1c(OC)cc(C(=O)O[C@@H]2C[C@@H]3CN4CCc5c([nH]c6cc(OC)ccc56)[C@H]4C[C@@H]3[C@H](C(=O)OC)[C@H]2OC)cc1OC: 38.5
CCN1C(=O)/C(=c2\sc3n(c2=O)NC2C(N=3)N(CC)C(=O)N2CC)c2ccccc21 (centres undefined): -12.7
CC[N+](CC)(CCCC(C)[N+]1(Cc2ccccc2)C(C)=CC=C1C)Cc1ccccc1 (centres undefined): 64
[2H]C1([2H])NC([2H])([2H])C([2H])([2H])N(c2ccc(Nc3ncc4cc(C(=O)N(C)C)n(C5CCCC5)c4n3)nc2)C1([2H])[2H]: 107
Cc1ccc(C2CC(c3cccc(Nc4ccncc4)c3)=NN2c2ccc(Cl)cc2)cc1 (centres undefined): -91.1
Clc1cc(Cl)cc(N2N=C(c3cccc(Nc4ccncc4)c3)CC2c2ccccc2)c1 (centres undefined): 67.4
CC1NC(=S)NC(=O)/C1=C/c1cc(=O)oc2c1ccc1ccccc12 (centres undefined): 100

# next compound below
Incoming: Hi! What's the reported growth for `CC(C)[N+](C)(CCOC(COc1ccccc1)COc1ccccc1)C(C)C` on OVCAR-3 ovarian?
Outgoing: 75.4

###

Form field: growth (one value per entry).
- System: SW-620 colon
- Test Details: NCI-60 one-dose screen, 48 h (100 = growth as untreated, 0 = no growth, -100 = all killed)
- Assay Conditions: 10 µM unless noted
The panel holds about 83,000 compounds, 20% with a hit somewhere; the sample as a whole holds those more often.
Provide the reading as a plain figure in %.

Here's what some known entries look like.
O=C(Nc1ccc(Nc2ncccn2)cc1)NC1C=c2ccccc2=CC1 (stereo not given): 106
CC1=CC[C@@H]2CC[C@]3(C)[C@H](CC[C@@H]4[C@@]5(C)CCCNC(C)(C)[C@@H]5CC[C@]43C)[C@H]2[C@@H]1C: -66.3
CC(C)CN(C(=O)c1ccc(Cl)cc1)c1c(N)n(CC(C)C)c(=O)[nH]c1=O: 100
CCCCCCCCCCCCC1CCC/C=C\CCC(=O)O1 (stereo not given): 103

# next compound below
Incoming: What does the record list as growth for CN(Cc1ccccc1)c1nc(Cl)c(C2CC(c3ccc(Cl)cc3)=Cc3[nH][nH]c(=O)c32)s1 (stereo not given) ?
Outgoing: 99.8

###

- System: HCT-116 colon
- Test Details: NCI-60 one-dose screen, 48 h (100 = growth as untreated, 0 = no growth, -100 = all killed)
- Assay Conditions: 10 µM unless noted
About 83,000 compounds went through this panel and 20% of them were active in at least one assay; those are over-represented in the sample as a whole.
Form field: growth (one value per entry).
Provide the reading as a plain figure in %.

Here's what some known entries look like.
COc1ccc(/C=N/NC(=O)c2cccc3cc[nH]c23)cc1O: 21.8
CC(=O)c1c(C)[nH]c(-c2nc3ccc(N4CCN(C)CC4)cc3[nH]2)c1-c1ccccc1: 59.6
C[C@]12C[C@H]1CC[C@]1(C)[C@@H]2CC[C@@]23C[C@H](CC[C@H]21)[C@@](O)(CO)C3: -71.4
C#CCn1cc(C=C2C(=O)NC(=S)NC2=O)c2cc(Cl)ccc21: 2.51

# next compound below
Incoming: What does the record list as growth for `CN1CCN(CCCOc2ccc3ncnc(Nc4ccc(Oc5cccc(C(F)(F)F)c5)c(Cl)c4)c3c2)CC1` ?
Outgoing: -62
